// provenance: PubChem BioAssay (NCI)

test system: MDA-MB-231 breast; test: NCI tumour cell line growth inhibition, 48 h
Quantity Name: TGI (µM)

In [3]: df
Out[3]:
                                   compound  op  observed_measurement
0  CCOC(=O)/C(=C/c1c(-c2ccccc2)[nH]c2ccccc12)C(=O)c1ccc(Cl)cc1   >                   100
1  C=C1CCC2C3(C)COC(c4cccc(Cl)c4)OC3CCC2(C)C1/C=C/C1=CCOC1=O (centres undefined)   >                   100
2           C/C(=N\NC(=S)Nc1ccccc1)c1ccccn1   =                  2.61
3  COC(=O)[C@@H](COC(=O)/C=C/c1ccc(OC(C)=O)c(OC(C)=O)c1)NC(=O)/C=C/c1ccc(OC(C)=O)c(OC(C)=O)c1   =                  82.4
4                    CCCCC[C@H]1CC=CC(=O)O1   =                    23
5  CSc1ccc(C=C2N=C(c3ccccc3)N(c3cc(C(=O)c4ccccc4)ccc3N3C(=O)/C(=C/c4ccc(SC)cc4)N=C3c3ccccc3)C2=O)cc1   >                   100
6  O=C1/C(=C\c2ccccc2)CN(C(=O)c2ccccc2F)C/C1=C\c1ccccc1   =                  4.06
7          C/C(O)=C/c1nc2sc(C)c(C)c2c(=O)s1   >                   100
8  N/C(=N/O)c1cn(C2OC(CO)C(O)C2O)c2ncnc(NO)c12 (centres undefined)   =                  5.05

====

Let's look at some compounds and their measured TGI.
test system: CCRF-CEM leukemia; test: NCI tumour cell line growth inhibition, 48 h
Quantity Name: TGI

Compound	Assay Target	Observed Measurement
C/C(O)=C/c1nc2sc(C)c(C)c2c(=O)s1	CCRF-CEM leukemia	> 100 µM
C=C1CCC2C3(C)COC(c4cccc(Cl)c4)OC3CCC2(C)C1/C=C/C1=CCOC1=O (centres undefined)	CCRF-CEM leukemia	> 100 µM
O=c1[nH]cnc2c1nnn2C1C=C(CO)C(O)C1O (centres undefined)	CCRF-CEM leukemia	> 100 µM
CCOC(=O)/C(C#N)=N\Nc1ccc(-n2c(C)nc3ccc(Br)cc3c2=O)cc1	CCRF-CEM leukemia	> 100 µM
CC(=O)NNc1nc(C)c(C(/C=C/c2ccc3c(c2)OCO3)=N/NC(=O)c2ccncc2)s1	CCRF-CEM leukemia	> 100 µM
Cc1cc2c(C)nn(Cc3ccc(Cl)cc3Cl)c2c(C#N)c1C	CCRF-CEM leukemia	> 100 µM
COc1ccc(C=O)c(N(C)C(=O)C(C)(C)C)c1	CCRF-CEM leukemia	> 100 µM
CC1OC(OC2C(OC3CCC4(C)C(CCC5(C)C4CC=C4C6CC(C)(C)CCC6(CO)C(O)CC45C)C3(C)C)OC(C(=O)O)C(OC3OC(COC4OC(CO)C(O)C(O)C4O)C(O)C(O)C3O)C2O)C(O)C(O)C1O (centres undefined)	CCRF-CEM leukemia	20.7 µM
NCCCNCCCNc1nc2ccccc2c2[nH]c3ccccc3c12	CCRF-CEM leukemia	2.42 µM

====

test system: SK-MEL-2 melanoma; test: NCI tumour cell line growth inhibition, 48 h
Quantity Name: TGI

Molecule	Assay Target	Quantity Name	Observed Measurement
O=C(Nc1ccc(-n2cc(-c3ccncc3)c(-c3ccc(O)c(Cl)c3)n2)cc1)c1ccc(Cl)c(Cl)c1	SK-MEL-2 melanoma	TGI	7.41 µM
C/C=C(\C)C(=O)O[C@@H]1C=CC(=O)O[C@H]1COC(=O)[C@H](C)O	SK-MEL-2 melanoma	TGI	68.6 µM
COc1ccc(C(=O)Nc2ccccc2C#N)cc1	SK-MEL-2 melanoma	TGI	> 100 µM
COC(=O)Oc1nn(C(=O)OC)c(=O)c2ccccc12 (tested in a mixture with another compound)	SK-MEL-2 melanoma	TGI	> 100 µM
Cn1cc(-c2ccc3c(c2)ncn3-c2ccc(CC(=O)Nc3cc(C(C)(C)C)on3)cc2)cn1	SK-MEL-2 melanoma	TGI	5.14 µM
N#Cc1c(-c2ccccc2)cc(Nc2ccc(F)cc2)n2c1nc1ccccc12	SK-MEL-2 melanoma	TGI	4.35 µM
COC(=O)[C@@H](COC(=O)/C=C/c1ccc(OC(C)=O)c(OC(C)=O)c1)NC(=O)/C=C/c1ccc(OC(C)=O)c(OC(C)=O)c1	SK-MEL-2 melanoma	TGI	55.4 µM
Cc1c(O)c(OC2OC(CO)C(O)C(O)C2O)cc2c1CC[C@@H]1C2(C)C(=O)C[C@]2(C)[C@@H]([C@@](C)(O)C(O)CCC(C)(C)O)[C@H](O)C[C@@]12C (stereo partly specified)	SK-MEL-2 melanoma	TGI	> 100 µM
CSc1nc(NC2OC(CO)C(O)C(O)C2O)c(N)c(=O)n1C (stereo unspecified)	SK-MEL-2 melanoma	TGI	> 100 µM
N/C(=N\N=C=C1C(=O)Nc2ccc(F)cc21)NO	SK-MEL-2 melanoma	TGI	> 100 µM
CCCN=C1S/C(=C/c2ccc(OC)c(OC)c2)C(=O)N1c1ccccc1	SK-MEL-2 melanoma	TGI	85.8 µM
Cc1ccc(C)c(NC(=O)CCC(=O)CC(=O)C(C)(C)C)c1	SK-MEL-2 melanoma	TGI	> 100 µM
Cc1ccc2c(c1)/C(=N\N=C/c1cn(C(C)C)c3ccccc13)C(=O)N2	SK-MEL-2 melanoma	TGI	23 µM
O=C(CC(C(=O)c1ccsc1)c1cccs1)c1ccsc1 (stereo unspecified)	SK-MEL-2 melanoma	TGI	> 100 µM
CCN=C(N)CSS(=O)(=O)O	SK-MEL-2 melanoma	TGI	> 100 µM
CN(C)c1ccc(N=C(C#N)c2nc(N)nc(N3CCOCC3)n2)cc1	SK-MEL-2 melanoma	TGI	> 100 µM
COC(=O)/C=C1/OC(c2ccccc2)=CC1=O	SK-MEL-2 melanoma	TGI	47.9 µM
COC(=O)C12C3C=CC(O3)C1C1C=CC2O1 (stereo unspecified)	SK-MEL-2 melanoma	TGI	> 100 µM
c1ncc(C23C4C5C6C4C2C6C53)[nH]1 (stereo unspecified)	SK-MEL-2 melanoma	TGI	> 100 µM
Cc1ccc(NC(=O)c2cc(S(=O)(=O)N3CCNNC3=O)c(S)cc2Cl)cc1	SK-MEL-2 melanoma	TGI	> 100 µM
COC1(CCO)CC=CCC1(CCO)OC (stereo unspecified)	SK-MEL-2 melanoma	TGI	> 100 µM

====

test system: EKVX NSCLC; assay: NCI tumour cell line growth inhibition, 48 h
Let's look at some compounds and their measured TGI.

Compound	Op	TGI / µM
NC(N)=NCCCS(=O)(=O)Nc1ccc(Nc2c3ccccc3nc3cc([N+](=O)[O-])ccc23)cc1	=	70.7
CC(=O)Nc1ccccc1S(=O)(=O)c1c(-c2c(C)c(Cl)c(C)c(Cl)c2C)noc1C	>	100
Cn1cccc1C1CC(=O)N(CCC[Se]C#N)C1=O (centres undefined)	=	4.46
CCOC(=O)CC(=O)Nc1c(C(=O)OCC)sc2nc(SC)nc(Nc3ccc(OC)c(OC)c3)c12	>	100
COC(=O)[C@@]12C3=NO[C@]1(C(=O)OC)C(O[Si](C)(C)C(C)(C)C)C1OC(C)(C)OC1[C@@H]2[C@@H](OCc1ccccc1)CC3 (some centres undefined)	>	100
COc1cc2nc(-c3ccc(Cl)cc3)cc(OCCCN3CCC(O)CC3)c2cc1OC	=	12.9
Cn1c(=O)c2c(nc3n2C(CCl)CO3)n(C)c1=O (centres undefined)	>	100
CC(C)c1cccc(C(C)C)c1NC(=S)Nc1ccccc1	>	100
C[C@@H](Oc1cc(-n2cnc3ccc(OCC4CCN(C)CC4)cc32)sc1C(N)=O)c1ccccc1C(F)(F)F	=	5.04

====

test system: HL-60(TB) leukemia; test: NCI tumour cell line growth inhibition, 48 h
Quantity Name: TGI (µM)

In [3]: df
Out[3]:
                                   compound  unit_of_measurement  op  observed_measurement
0  COC(=O)C1(Cc2ccccc2C)Cc2ccc(C)cc2C1=O (centres undefined)                   µM   =                  30.9
1  COC(=O)C1(C)CCc2c(ccc3ccccc23)C1=O (centres undefined)                   µM   >                   100
2   CCCNc1c(Cl)cc(Cl)c2[nH]c3ccccc3c(=O)c12                   µM   =                  47.6
3  Cn1cc(-c2ccc3c(c2)ncn3-c2ccc(CC(=O)Nc3cc(C(C)(C)C)on3)cc2)cn1                   µM   =                  9.65
